Each recorded value in this set is attributed to PubChem BioAssay (EPA / NIEHS).

Test Summary: Tanguay_ZF_120hpf_JAW_legacy: (Legacy) Oregon State University Tanguay Lab 120 Hour Post-fertilization zebrafish Assay for Jaw Malformation (AID 2283638)
Results filed as inconclusive are left out. The source made the active and inactive calls. Rule for the calls: active = hit-call score of the fitted dose curve at least 0.9, where 1 is the maximum; inconclusive = response in the unintended direction; inactive = score below 0.9.
Use one of these outcomes when replying: 1.0 = active, 0.0 = inactive

Any idea what this test logged for c1ccc2c(c1)oc1ccccc12 ?
0.0

Any idea what this test logged for O=C(Nc1ccccc1)c1ccccc1I ?
1.0

Any idea what this test logged for Cc1cccc(N)c1N ?
0.0

====

Test system: zebrafish Estrogen Receptor (ESR2A), gene 317734
Test Summary: ATG_zfER2a_XSP1: Attagene TRANS-FACTORIAL Multi-Species (XSP1) HepG2 Assay for zebrafish Estrogen Receptor (ESR2A) (AID 2283778)
Results filed as inconclusive are left out. The source made the active and inactive calls. Rule for the calls: active = hit-call score of the fitted dose curve at least 0.9, where 1 is the maximum; inconclusive = response in the unintended direction; inactive = score below 0.9.
Test Readout: AC50

C[C@]12C=CC3=C4CCC(=O)C=C4CC[C@H]3[C@@H]1CC[C@@H]2O; inactive
Clc1ccc(C(c2ccc(Cl)cc2)C(Cl)(Cl)Cl)cc1; 17.6 µM (active)
CCC[CH2][Sn]([Cl])([CH2]CCC)[CH2]CCC; inactive
CCCCOC(=O)c1ccccc1C(=O)OCc1ccccc1; 7.24 µM (active)

====

Measured On: Aryl hydrocarbon receptor (Homo sapiens) (UniProt P35869)
Sequence (P35869 whole entry, looked up): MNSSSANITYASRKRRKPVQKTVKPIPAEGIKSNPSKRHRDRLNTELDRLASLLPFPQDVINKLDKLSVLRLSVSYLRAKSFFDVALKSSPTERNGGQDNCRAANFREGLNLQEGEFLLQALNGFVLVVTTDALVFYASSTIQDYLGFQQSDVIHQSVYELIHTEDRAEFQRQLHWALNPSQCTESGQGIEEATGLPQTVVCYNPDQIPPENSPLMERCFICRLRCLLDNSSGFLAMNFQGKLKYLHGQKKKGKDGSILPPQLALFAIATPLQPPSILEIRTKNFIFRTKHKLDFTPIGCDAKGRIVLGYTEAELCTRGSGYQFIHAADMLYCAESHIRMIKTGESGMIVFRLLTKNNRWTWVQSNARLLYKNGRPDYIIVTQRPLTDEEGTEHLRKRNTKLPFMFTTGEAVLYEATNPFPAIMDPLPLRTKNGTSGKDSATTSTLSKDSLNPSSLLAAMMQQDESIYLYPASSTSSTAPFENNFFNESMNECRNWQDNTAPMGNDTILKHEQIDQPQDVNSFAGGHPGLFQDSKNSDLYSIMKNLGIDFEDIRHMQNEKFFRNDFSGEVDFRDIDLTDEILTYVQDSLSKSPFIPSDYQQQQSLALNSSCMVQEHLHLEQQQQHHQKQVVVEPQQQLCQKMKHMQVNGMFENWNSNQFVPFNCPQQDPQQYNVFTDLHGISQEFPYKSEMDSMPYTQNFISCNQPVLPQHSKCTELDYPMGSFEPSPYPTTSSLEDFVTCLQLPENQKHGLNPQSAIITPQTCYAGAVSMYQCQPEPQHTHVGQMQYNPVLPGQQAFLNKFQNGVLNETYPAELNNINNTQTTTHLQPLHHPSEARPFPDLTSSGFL
Test Summary: ATG_Ahr_CIS: Attagene CIS-FACTORIAL HepG2 Assay for human Aryl Hydrocarbon Receptor (Ahr) (AID 2282930)
Experimental Parameters: HepG2 AhR cis-factorial reporter transcription; actives raise or lower the signal
The source made the active and inactive calls. How the source made its calls: active means hit-call score of the fitted dose curve at least 0.9, where 1 is the maximum; inactive means score below 0.9.
Use one of these outcomes when replying: True = active, False = inactive

Cc1ccc(N)cc1; False

Any idea what this test logged for CC(C)(C)C(O)(CCc1ccc(Cl)cc1)Cn1cncn1 (stereo not given) ?
True

Any idea what this test logged for N#CC(Br)(Br)C(N)=O ?
True

Any idea what this test logged for CN(C)C(=O)Nc1ccc(Cl)cc1 ?
True

Any idea what this test logged for CC(C)COC(=O)c1ccccc1C(=O)OCC(C)C ?
False

Any idea what this test logged for [As]#[In] ?
True

Any idea what this test logged for O=Cc1ccco1 ?
False

Any idea what this test logged for CCCCCCCCCCCCCN1CC(C)OC(C)C1 (stereo not given) ?
False

Any idea what this test logged for COP(=S)(OC)SCN1C(=O)c2ccccc2C1=O ?
False

Any idea what this test logged for CCN(CC)CCO ?
False

Any idea what this test logged for COC(=O)Nc1nc2ccccc2[nH]1 ?
True

Any idea what this test logged for C[N+](C)(C)CC1CO1 (stereo not given) ?
False

Any idea what this test logged for CCC[CH2][Sn]([Cl])([CH2]CCC)[CH2]CCC ?
False

Any idea what this test logged for Cc1ccc(N=C=O)cc1N=C=O ?
False

Any idea what this test logged for O=[N+]([O-])c1ccc(Oc2ccc(Cl)cc2Cl)cc1 ?
True

====

Read-out: ABC Transporter (ABCC2), ABCC2 (gene 1244)
Test Summary: LTEA_HepaRG_ABCC2: Life Technologies and Expression Analysis (LTEA) Assay for ABC Transporter (ABCC2) using HepaRG (AID 2283464)
Experimental Parameters: mRNA level, 48 h; actives raise or lower the signal
Activity calls are given as the source filed them. How the source made its calls: active means hit-call score of the fitted dose curve at least 0.9, where 1 is the maximum; inactive means score below 0.9.
Use one of these outcomes when replying: yes (1) = active, no (0) = inactive

Illustrative cases are given below, each with its answer.
COP(=S)(OC)SCN1C(=O)c2ccccc2C1=O; no (0)
Clc1ccccc1Cl; no (0)

Any idea what this test logged for Cc1ccc([N+](=O)[O-])cc1 ?
yes (1)

====

Read-out: succinate dehydrogenase complex iron sulfur subunit B (SDHB), SDHB (gene 6390)
Test Summary: LTEA_HepaRG_SDHB: Life Technologies and Expression Analysis (LTEA) Assay for succinate dehydrogenase complex iron sulfur subunit B (SDHB) using HepaRG (AID 2283528)
Experimental Parameters: mRNA level, 48 h; actives raise or lower the signal
Calls of active or inactive are those of the source. How the source made its calls: active means hit-call score of the fitted dose curve at least 0.9, where 1 is the maximum; inactive means score below 0.9.
Use one of these outcomes when replying: 1 = active, -1 = inactive

Illustrative cases are given below, each with its answer.
O=[N+]([O-])c1ccc(Oc2ccc(Cl)cc2Cl)cc1; -1
COC(=O)Nc1nc2ccccc2[nH]1; -1
c1ccc(N=Nc2ccccc2)cc1; -1
Clc1ccc(C(c2ccc(Cl)cc2)C(Cl)Cl)cc1; -1
Brc1ccc(Oc2ccccc2)cc1; -1

Any idea what this test logged for CCOc1cccc(C2(N3CCN(c4ccccc4)CC3)CCC(C)CC2)c1 (stereo not given) ?
-1

Any idea what this test logged for Cc1cccc(N)c1N ?
-1

Any idea what this test logged for CCC12COCN1COC2 ?
-1

Any idea what this test logged for CCC(C)c1ccc(O)cc1 (stereo not given) ?
-1

Any idea what this test logged for CC(C)COC(=O)c1ccccc1C(=O)OCC(C)C ?
-1

Any idea what this test logged for CC(C)(O)c1cnn2c(-c3ccc(F)c(-c4c(F)cccc4C#N)c3)cnc2n1 ?
-1

Any idea what this test logged for Nc1ccc(Oc2ccc(N)cc2)cc1 ?
-1

Any idea what this test logged for [Cl-].[Cl-].[Hg+2] ?
-1

Any idea what this test logged for c1ccc2c(c1)oc1ccccc12 ?
-1

Any idea what this test logged for CCNS(=O)(=O)C(F)(F)C(F)(F)C(F)(F)C(F)(F)C(F)(F)C(F)(F)C(F)(F)C(F)(F)F ?
-1

====

Read-out: Glutamate-cysteine ligase regulatory (GCLM), GCLM (gene 2730)
Test Summary: LTEA_HepaRG_GCLM: Life Technologies and Expression Analysis (LTEA) Assay for Glutamate-cysteine ligase regulatory (GCLM) using HepaRG (AID 2283500)
Experimental Parameters: mRNA level, 48 h; actives raise or lower the signal
The source made the active and inactive calls. How the source made its calls: active means hit-call score of the fitted dose curve at least 0.9, where 1 is the maximum; inactive means score below 0.9.
Use one of these outcomes when replying: Yes for active, No for inactive

Illustrative cases are given below, each with its answer.
ClCCOCCCl; No
ClC1=C(Cl)C2(Cl)C3C(Cl)C=CC3C1(Cl)C2(Cl)Cl (centres undefined); Yes
Oc1ccccc1Cl; No
O=C(Nc1ccccc1)c1ccccc1I; Yes
CS(=O)(=O)NC(=O)c1cc(Oc2ccc(C(F)(F)F)cc2Cl)ccc1[N+](=O)[O-]; No

Any idea what this test logged for CC(O)CCO (centres undefined) ?
No

Any idea what this test logged for Cc1ccc(N)c(N)c1 ?
No

====

Test Summary: CCTE_Mundy_HCI_hNP1_Casp3_7: CCTE's Caspase-Glo 3/7 Assay in human neuroprogenitor cells for Apoptosis, Mundy Lab (AID 2284240)
Calls of active or inactive are those of the source. The calls were made as follows: active = hit-call score of the fitted dose curve at least 0.9, where 1 is the maximum; inactive = score below 0.9.
Test Readout: AC50

OCCOCCO; inactive
CCCCOC(=O)c1ccccc1C(=O)OCc1ccccc1; inactive
Nc1cc(Cl)cc(C(=O)O)c1Cl; inactive
CNC(=O)Oc1cccc2c1OC(C)(C)C2; inactive
[O-][Cl+]O; inactive

Could you now consider this next compound?
// field: AC50; key: CCC[CH2][Sn]([Cl])([CH2]CCC)[CH2]CCC ; value = 4.18 µM (active)

====

Read-out: cysteine-aspartic acid protease (CASP8), CASP8 (gene 841)
Test Summary: LTEA_HepaRG_CASP8: Life Technologies and Expression Analysis (LTEA) Assay for cysteine-aspartic acid protease (CASP8) using HepaRG (AID 2283480)
Experimental Parameters: mRNA level, 48 h; actives raise or lower the signal
The source made the active and inactive calls. The calls were made as follows: active = hit-call score of the fitted dose curve at least 0.9, where 1 is the maximum; inactive = score below 0.9.
Use one of these outcomes when replying: active, inactive

Clc1ccc(Cl)c(Cl)c1; inactive
Nc1ccc(Cl)cc1N; inactive
ClC1=C(Cl)C2(Cl)C3C(Cl)C=CC3C1(Cl)C2(Cl)Cl (stereo unspecified); inactive
COC(=O)c1ccccc1N; inactive
Oc1ccccc1Cl; inactive

Any idea what this test logged for c1ccc2c(c1)oc1ccccc12 ?
inactive

Any idea what this test logged for COC(=O)Nc1nc2ccccc2[nH]1 ?
inactive

Any idea what this test logged for CCN(CC)N=O ?
inactive

Any idea what this test logged for Oc1ccc2ccc3cccc4ccc1c2c34 ?
inactive

====

Read-out: Fatty Acid-Binding Protein 1 (FABP1), FABP1 (gene 2168)
Test Summary: LTEA_HepaRG_FABP1: Life Technologies and Expression Analysis (LTEA) Assay for Fatty Acid-Binding Protein 1 (FABP1) using HepaRG (AID 2283494)
Experimental Parameters: mRNA level, 48 h; actives raise or lower the signal
Active and inactive are the calls of the source. The calls were made as follows: active = hit-call score of the fitted dose curve at least 0.9, where 1 is the maximum; inactive = score below 0.9.
Use one of these outcomes when replying: active, inactive

Illustrative cases are given below, each with its answer.
O=C(Nc1ccccc1)c1ccccc1I; active
N#CC(Br)(Br)C(N)=O; inactive
c1ccc(C2CO2)cc1 (stereo not drawn); inactive
CC(C)COC(=O)c1ccccc1C(=O)OCC(C)C; inactive
CCN(CC)CCO; inactive
CCNS(=O)(=O)C(F)(F)C(F)(F)C(F)(F)C(F)(F)C(F)(F)C(F)(F)C(F)(F)C(F)(F)F; active
CCCCCOC(=O)c1ccccc1C(=O)OCCCCC; inactive

Any idea what this test logged for OCCOCCO ?
inactive

====

Read-out: Cytochrome P450 3A7 (Homo sapiens)
Test Summary: LTEA_HepaRG_CYP3A7: Life Technologies and Expression Analysis (LTEA) Assay for CYP3A7 using HepaRG (AID 2283492)
Experimental Parameters: mRNA level, 48 h; actives raise or lower the signal
Activity calls are given as the source filed them. How the source made its calls: active means hit-call score of the fitted dose curve at least 0.9, where 1 is the maximum; inactive means score below 0.9.
Use one of these outcomes when replying: active, inactive

CC(C)(C)C(O)(CCc1ccc(Cl)cc1)Cn1cncn1 (stereo unspecified); active
ClC1=C(Cl)C2(Cl)C3C(Cl)C=CC3C1(Cl)C2(Cl)Cl (stereo unspecified); inactive
CO[C@@H]1[C@H](OC(=O)NC(=O)CCl)CC[C@]2(CO2)[C@H]1[C@@]1(C)O[C@@H]1CC=C(C)C; inactive
Cc1cccc(N)c1N; inactive
CCCCCCCCOC(=O)c1ccc(C(=O)OCCCCCCCC)c(C(=O)OCCCCCCCC)c1; inactive
CCOc1cccc(C2(N3CCN(c4ccccc4)CC3)CCC(C)CC2)c1 (stereo unspecified); inactive
Clc1ccc(C(c2ccc(Cl)cc2)C(Cl)Cl)cc1; active
CC(C)(O)c1cnn2c(-c3ccc(F)c(-c4c(F)cccc4C#N)c3)cnc2n1; inactive
[Cl-].[Cl-].[Hg+2]; inactive
O=C(N[C@H](c1ccccc1)[C@@H]1CN2CCC1CC2)c1c(Cl)ccc(C(F)(F)F)c1Cl; active

Kindly review the next compound as well.
Any idea what this test logged for CC(C)N(Cc1ccccc1)C(=O)C(C)(C)C ?
active
